Molecular target: ABHD6 (Mus musculus (Mouse))
Sequence (Q8R2Y0 whole entry): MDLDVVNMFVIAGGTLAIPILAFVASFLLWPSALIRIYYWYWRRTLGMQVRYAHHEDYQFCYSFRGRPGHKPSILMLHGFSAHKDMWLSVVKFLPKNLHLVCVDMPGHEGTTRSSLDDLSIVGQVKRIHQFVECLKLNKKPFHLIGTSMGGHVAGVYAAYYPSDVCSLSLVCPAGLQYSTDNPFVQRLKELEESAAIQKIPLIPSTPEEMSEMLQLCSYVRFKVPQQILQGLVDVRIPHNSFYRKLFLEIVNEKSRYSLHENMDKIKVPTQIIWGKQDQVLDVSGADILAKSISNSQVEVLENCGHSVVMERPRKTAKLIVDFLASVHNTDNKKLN
Experiment: In vitro competitive activity-based protein profiling (FP-Rh), mouse ABHD6
Assay type: biochemical
Details: mouse brain membrane proteome, competitive ABPP
ENDPOINT: IC50

The following compounds have reported results that may help.
O=C(OC(C(F)(F)F)C(F)(F)F)N1CCN(C(c2ccc(Br)cc2)c2ccc(Br)cc2)CC1 [Example 2c]: > 1000 nM
O=C(OC(C(F)(F)F)C(F)(F)F)N1CCN(Cc2cccc(Oc3ccccc3)c2)CC1 [Example 3a]: < 100 nM
CC(C)c1cc(C(C)C)c(S(=O)(=O)N2CCN(C(=O)OC(C(F)(F)F)C(F)(F)F)CC2)c(C(C)C)c1 [Example 4f]: > 1000 nM
O=C(OC(C(F)(F)F)C(F)(F)F)N1CCN(S(=O)(=O)c2ccc3ccccc3c2)CC1 [Example 4h]: > 1000 nM

Give one value of IC50 per listed compound.
1. O=C(Oc1ccc([N+](=O)[O-])cc1)N1CCC(C(O)(c2ccc3c(c2)OCO3)c2ccc3c(c2)OCO3)CC1 [A, reference compound]
2. Cc1cc(N2CCN(C(=O)OC(C(F)(F)F)C(F)(F)F)CC2)c2ccccc2n1 [Example 3h]
3. CN(Cc1ccc2c(c1)OCO2)C(=O)OC(C(F)(F)F)C(F)(F)F [Example 3i]
4. CC(C)(C)c1ccc(S(=O)(=O)N2CCN(C(=O)OC(C(F)(F)F)C(F)(F)F)CC2)cc1 [Example 4c]
5. O=C(OC(C(F)(F)F)C(F)(F)F)N1CCN(Cc2ccc(Br)cc2Oc2ccccc2)CC1 [Example 9b]

1. 100 to 1000 nM
2. > 1000 nM
3. > 1000 nM
4. > 1000 nM
5. 100 to 1000 nM

Return IC50 for the following compound: CC(C)(C)OC(=O)N1CCN(C(=O)OC(C(F)(F)F)C(F)(F)F)CC1 [Example 3d] > 1000 nM

* * *

Target: FAAH (Mus musculus (Mouse), UniProt O08914)
Sequence (O08914 whole entry): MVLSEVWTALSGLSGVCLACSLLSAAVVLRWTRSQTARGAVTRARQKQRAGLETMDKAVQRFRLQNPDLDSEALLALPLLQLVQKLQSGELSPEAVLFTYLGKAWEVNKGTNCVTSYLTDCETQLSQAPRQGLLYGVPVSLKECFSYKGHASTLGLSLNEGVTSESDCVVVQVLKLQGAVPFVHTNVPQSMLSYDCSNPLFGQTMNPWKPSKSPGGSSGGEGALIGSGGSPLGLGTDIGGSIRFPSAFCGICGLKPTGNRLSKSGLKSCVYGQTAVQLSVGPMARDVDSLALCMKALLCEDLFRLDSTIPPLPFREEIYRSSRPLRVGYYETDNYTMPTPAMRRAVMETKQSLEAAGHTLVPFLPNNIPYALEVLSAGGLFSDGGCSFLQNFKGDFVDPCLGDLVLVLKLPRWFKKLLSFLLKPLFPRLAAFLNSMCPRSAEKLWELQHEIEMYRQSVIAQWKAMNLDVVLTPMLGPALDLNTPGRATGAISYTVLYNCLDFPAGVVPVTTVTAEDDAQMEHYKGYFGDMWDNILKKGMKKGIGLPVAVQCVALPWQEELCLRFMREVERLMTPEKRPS
Assay: In vitro competitive activity-based protein profiling (FP-Rh), mouse FAAH
Type: biochemical
Conditions: mouse brain membrane proteome, competitive ABPP (Table 7)
Answer each item with its documented IC50.

Solved entries:
COc1cc(N2CCOCC2)ccc1CN1CCN(C(=O)OC(C(F)(F)F)C(F)(F)F)CC1: > 6250 nM
O=C(OC(C(F)(F)F)C(F)(F)F)N1CCN(Cc2cccc(N3CCOCC3)c2)CC1: > 10000 nM
O=C(OC(C(F)(F)F)C(F)(F)F)N1CCN(Cc2cccc(F)c2N2CCCC2)CC1: > 10000 nM
O=C(OC(C(F)(F)F)C(F)(F)F)N1CCN(Cc2ccc(Cl)cc2N2CCOCC2)CC1: > 6250 nM
CC(=O)N[C@@H]1CCN(c2cc(Cl)ccc2CN2CCN(C(=O)OC(C(F)(F)F)C(F)(F)F)CC2)C1: > 10000 nM

Answer for every listed entry: what is its IC50? The entries follow.
1. O=C(OC(C(F)(F)F)C(F)(F)F)N1CCN(Cc2ccc(-c3ccccc3)cc2C(=O)N2CCCC2)CC1 [Example 11y]
2. O=C(OC(C(F)(F)F)C(F)(F)F)N1CCN(Cc2ccc(N3CCCC3)cc2Cl)CC1

> 10000 nM
> 10000 nM

Field: IC50. Fill in for each record below.
1. Cc1cc(N2CCCC2)ccc1CN1CCN(C(=O)OC(C(F)(F)F)C(F)(F)F)CC1
2. CC(C)n1cc(CN2CCN(C(=O)OC(C(F)(F)F)C(F)(F)F)CC2)c(-c2ccccc2)n1 [Example 10h]

> 6250 nM
> 10000 nM

Cited source for all entries: patent US9133148B2
